Field IC50: reported value for Oxysterols receptor LXR-alpha (Homo sapiens, UniProt Q13133); entries drawn from several documents.
Respond numerically; units are nM and should not be typed.

Take a look at these entries with their results.
Molecule smiles	Target entity	Readout type	Value unit	Readout value
CS(=O)(=O)c1cc(Cl)cc(Oc2ccc(F)c(-c3ncnc4c(C(F)(F)F)cccc34)c2)c1	Oxysterols receptor LXR-alpha (Homo sapiens, UniProt Q13133)	IC50	nM	2340
CS(=O)(=O)c1cc(F)cc(Oc2ccc(-n3c(C(F)(F)F)nc4c(C(F)(F)F)cccc43)cc2)c1	Oxysterols receptor LXR-alpha (Homo sapiens, UniProt Q13133)	IC50	nM	4700
Cc1nc2cccc(C(F)(F)F)c2nc1-c1cc(Oc2cccc(S(C)(=O)=O)c2)ccc1Cl	Oxysterols receptor LXR-alpha (Homo sapiens, UniProt Q13133)	IC50	nM	557
CS(=O)(=O)c1cccc(Oc2ccc(-n3c(C(F)(F)F)nc4c(C(F)(F)F)cccc43)cc2)c1	Oxysterols receptor LXR-alpha (Homo sapiens, UniProt Q13133)	IC50	nM	4500
CC(C)S(=O)(=O)c1cccc(Oc2ccc(Cl)c(-c3ncnc4c(C(F)(F)F)cccc34)c2)c1	Oxysterols receptor LXR-alpha (Homo sapiens, UniProt Q13133)	IC50	nM	119
O=C(O)c1ccc2cc(OCc3cccc(-c4c(Cc5ccccc5)cnc5c(C(F)(F)F)cccc45)c3)ccc2c1	Oxysterols receptor LXR-alpha (Homo sapiens, UniProt Q13133)	IC50	nM	683

Would you mind telling me what IC50 value was observed for CS(=O)(=O)c1cccc(Oc2cccc(-c3ncnc4c(Cl)cccc34)c2)c1 ?
5320

====

Field log10(IC50): reported value for Oxysterols receptor LXR-alpha (Homo sapiens); entries drawn from several documents.
Please note: log10 values; quantity IC50; unit nM.

Compound	Target entity	log10(IC50)
Cc1cc(C(=O)O)cc(C)c1OCc1cccc(-c2c(Cc3ccccc3)cnc3c(C(F)(F)F)cccc23)c1	Oxysterols receptor LXR-alpha (Homo sapiens)	2.51
CS(=O)(=O)c1cc(F)cc(Oc2ccc(-n3cnc4c(C(F)(F)F)cccc43)c(Cl)c2)c1	Oxysterols receptor LXR-alpha (Homo sapiens)	3.60
O=C(O)c1cc(F)ccc1OCc1cccc(-c2c(Cc3ccccc3)cnc3c(C(F)(F)F)cccc23)c1	Oxysterols receptor LXR-alpha (Homo sapiens)	3.51

Would you mind telling me what log10(IC50) value was observed for CC(C)N1C(=O)N(S(=O)(=O)C(C)C)CC1c1cccc(-c2cccc(S(C)(=O)=O)c2)c1 (stereo not drawn) ?
3.40

Also CCc1nc2c(Cl)cccn2c1-c1cccc(Oc2cccc(S(=O)(=O)N(C)Cc3ccc(OC)cc3)c2)c1 , if possible.
1.60

Also CCN(Cc1nc(-c2cccc(C(=O)OC)c2)oc1C)c1ccc(C(O)(C(F)(F)F)C(F)(F)F)cc1 , if possible.
0.43

====

Field IC50: reported value for Oxysterols receptor LXR-alpha (Homo sapiens); entries drawn from several documents.
Label Y when IC50 is strictly below 2 µM; otherwise label N.

Example cases with answers are listed next.
Molecule smiles	Cat
CCc1nc2c(Cl)cccn2c1-c1cccc(Oc2cccc(S(N)(=O)=O)c2)c1	N
O=C(O)Cc1ccc2cccc(OCc3cccc(-c4c(Cc5ccccc5)cnc5c(C(F)(F)F)cccc45)c3)c2c1	Y
O=C(O)c1cccc(Oc2cccc(-c3c(Cc4ccccc4)cnc4c(Cl)cccc34)c2)c1	Y
Cc1cc(C(=O)O)c(C)cc1NCc1cncc(-c2c(Cc3ccccc3)cnc3c(C(F)(F)F)cccc23)c1	N
CS(=O)(=O)c1ccc(Oc2cccc(-c3ncnc4c(C(F)(F)F)cccc34)c2)cc1	N
N#CCCCS(=O)(=O)c1cccc(Oc2ccc(Cl)c(-c3ncnc4c(C(F)(F)F)cccc34)c2)c1	Y
NC(=O)CCCS(=O)(=O)c1cccc(Oc2ccc(F)c(-c3ncnc4c(C(F)(F)F)cccc34)c2)c1	N
CC(C)CN(Cc1ccc(-c2cccc(S(C)(=O)=O)c2)s1)S(C)(=O)=O	N
COCCCS(=O)(=O)c1cccc(Oc2cccc(-c3ncnc4c(C(F)(F)F)cccc34)c2)c1	N
CC(C)c1nc2c(C(F)(F)F)cccn2c1-c1cccc(Oc2cccc(S(=O)(=O)C(C)C)c2)c1	Y

Criterion: IC50 strictly below 2 µM. Is it met by CCc1nc2c(C#N)cccn2c1-c1cccc(Oc2cccc(S(N)(=O)=O)c2)c1 ?
N

Also CCS(=O)(=O)c1cc(F)cc(Oc2ccc(-n3c(C)nc4c(C(F)(F)F)cccc43)c(C)c2)c1 , if possible.
N
